- protocolNotes: Inhibition of telomerase by fluorescence based assay
- Design: species or system Homo sapiens
experimentalEndpoint: IC50 (µM)

> print(dat)
                                   structure  unitofmeasurement  valuecomparator   val
 1  CC[n+]1c(-c2ccccc2)c2cc(NC(=O)CCCC(N)=O)ccc2c2ccc(N)cc21                 µM                =  68.2
 2  CC[n+]1c(-c2ccccc2)c2cc(NC(=O)CCCC(=O)O)ccc2c2ccc(N)cc21                 µM                >    80
 3  Nc1ccc2c(c1)c(-c1ccccc1)[n+](Cc1ccc(C(=O)O)cc1)c1cc(N)ccc21                 µM                =  27.3
 4  CC[n+]1c(-c2ccccc2)c2cc(NC(=O)CCCC(=O)O)ccc2c2ccc(NC(=O)CCCC(=O)O)cc21                 µM                =  63.1
 5  CC[n+]1c(-c2ccccc2)c2cc(N)ccc2c2ccc(NC(=O)CCCC(N)=O)cc21                 µM                =   5.6
 6  CC[n+]1c(-c2ccccc2)c2cc(N)ccc2c2ccc(NC(=O)CCCC(=O)O)cc21                 µM                >    80
 7  Nc1ccc2c(c1)c(-c1ccccc1)[n+](CCCCCC(=O)O)c1cc(N)ccc21                 µM                =  23.3
 8  NC(=O)c1ccc(C[n+]2c(-c3ccccc3)c3cc(N)ccc3c3ccc(N)cc32)cc1                 µM                =   2.9
 9  CC[n+]1c(-c2ccccc2)c2cc(NC(=O)CCCC(N)=O)ccc2c2ccc(NC(=O)CCCC(N)=O)cc21                 µM                >    80
10  NC(=O)CCCCC[n+]1c(-c2ccccc2)c2cc(N)ccc2c2ccc(N)cc21                 µM                =  30.3

Each recorded value in this set is attributed to ChEMBL document CHEMBL1147838.
